# methodNotes: Inhibition of Platelet-derived growth factor receptor (PDGFR)
# Format: functional
pIC50: −log10 of the molar value.
measuredParameter: pIC50

stdin: Retrieve pIC50 measured for CCN(CC)CC(O)CNc1cc2c(Nc3cccc(Br)c3)ncnc2cn1 (stereo unspecified) and print it.
stdout: < 4.30

* * *

# testedOn: Proto-oncogene tyrosine-protein kinase Src (Homo sapiens)
# Sequence (P12931 2-536 limits assumed): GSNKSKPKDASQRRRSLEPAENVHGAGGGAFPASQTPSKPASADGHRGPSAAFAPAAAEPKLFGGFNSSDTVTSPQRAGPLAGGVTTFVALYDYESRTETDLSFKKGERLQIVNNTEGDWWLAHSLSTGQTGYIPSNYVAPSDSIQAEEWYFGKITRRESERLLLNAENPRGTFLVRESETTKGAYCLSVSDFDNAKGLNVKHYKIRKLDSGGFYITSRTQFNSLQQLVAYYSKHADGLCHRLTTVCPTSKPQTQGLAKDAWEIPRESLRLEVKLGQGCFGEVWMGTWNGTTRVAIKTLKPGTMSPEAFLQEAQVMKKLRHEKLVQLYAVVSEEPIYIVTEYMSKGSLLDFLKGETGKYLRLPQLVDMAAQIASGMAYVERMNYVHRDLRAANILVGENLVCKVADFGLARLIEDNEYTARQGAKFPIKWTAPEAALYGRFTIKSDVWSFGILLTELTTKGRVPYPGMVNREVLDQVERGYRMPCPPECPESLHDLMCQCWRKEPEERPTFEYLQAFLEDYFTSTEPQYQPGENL
# methodNotes: Inhibition of c-Src tyrosine kinase
# Type: functional
pIC50: −log10 of the molar value.
measuredParameter: pIC50

stdin: Retrieve pIC50 measured for CCN(CC)CC(O)CNc1cc2c(Nc3cccc(Br)c3)ncnc2cn1 (stereo unspecified) and print it.
stdout: < 4.30

* * *

# testedOn: Epidermal growth factor receptor (Homo sapiens)
# methodNotes: Inhibition of tyrosine/glutamic acid copolymer phosphorylation by epidermal growth factor receptor prepared of human A431
measuredParameter: pIC50
Please treat pIC50 as minus the base-10 logarithm of the molar concentration.

stdin: Retrieve pIC50 measured for CNc1cc2c(Nc3cccc(C)c3)ncnc2cn1 and print it.
stdout: 9.35

stdin: Retrieve pIC50 measured for CN(C)CCNc1cc2c(Nc3cccc(Br)c3)ncnc2cn1 and print it.
stdout: 8.96

stdin: Retrieve pIC50 measured for CCN(CC)CC(O)CNc1cc2c(Nc3cccc(Br)c3)ncnc2cn1 (stereo not drawn) and print it.
stdout: 8.34

* * *

# testedOn: Epidermal growth factor receptor (Homo sapiens)
# methodNotes: Inhibition of EGF-dependent autophosphorylation of EGF-R in A431 cells
measuredParameter: pIC50
Please treat pIC50 as minus the base-10 logarithm of the molar concentration.

stdin: Retrieve pIC50 measured for CNc1cc2c(Nc3cccc(Br)c3)ncnc2cn1 and print it.
stdout: 7.89

stdin: Retrieve pIC50 measured for Brc1cccc(Nc2ncnc3cnc(NCCN4CCOCC4)cc23)c1 and print it.
stdout: 8.10

stdin: Retrieve pIC50 measured for CCN(CC)CC(O)CNc1cc2c(Nc3cccc(Br)c3)ncnc2cn1 (centres undefined) and print it.
stdout: 7.55

stdin: Retrieve pIC50 measured for CN(C)CCNc1cc2c(Nc3cccc(Br)c3)ncnc2cn1 and print it.
stdout: 7.37

* * *

# methodNotes: Aqueous solubility ([…] degree C)
# Type: physicochemical
# measurementSetup: water; read-out: S
measuredParameter: solubility (mM)
Please reply with the bare figure in mM and do not write the unit itself.

stdin: Retrieve solubility measured for O=C(O)CNc1cc2c(Nc3cccc(Br)c3)ncnc2cn1 and print it.
stdout: 5

stdin: Retrieve solubility measured for Brc1cccc(Nc2ncnc3cnc(NCCc4c[nH]cn4)cc23)c1 and print it.
stdout: 15

stdin: Retrieve solubility measured for Cc1cccc(Nc2ncnc3cnc(N)cc23)c1 and print it.
stdout: 0.4

stdin: Retrieve solubility measured for CN(C)CCN(C)c1cc2c(Nc3cccc(Br)c3)ncnc2cn1 and print it.
stdout: 39

stdin: Retrieve solubility measured for Brc1cccc(Nc2ncnc3cnc(NCCCn4ccnc4)cc23)c1 and print it.
stdout: 23

stdin: Retrieve solubility measured for CNc1cc2c(Nc3cccc(Br)c3)ncnc2cn1 and print it.
stdout: 0.1

stdin: Retrieve solubility measured for CN(C)CCCCNc1cc2c(Nc3cccc(Br)c3)ncnc2cn1 and print it.
stdout: 38

stdin: Retrieve solubility measured for Brc1cccc(Nc2ncnc3cnc(NCCN4CCOCC4)cc23)c1 and print it.
stdout: 10

stdin: Retrieve solubility measured for CN(CC(=O)O)c1cc2c(Nc3cccc(Br)c3)ncnc2cn1 and print it.
stdout: 44

stdin: Retrieve solubility measured for OCC(O)CNc1cc2c(Nc3cccc(Br)c3)ncnc2cn1 (stereo not drawn) and print it.
stdout: 0.21

stdin: Retrieve solubility measured for OCCN(CCO)CCCNc1cc2c(Nc3cccc(Br)c3)ncnc2cn1 and print it.
stdout: 20

stdin: Retrieve solubility measured for Brc1cccc(Nc2ncnc3cnc(NCc4cccnc4)cc23)c1 and print it.
stdout: 12

stdin: Retrieve solubility measured for CN(CCO)c1cc2c(Nc3cccc(Br)c3)ncnc2cn1 and print it.
stdout: 0.11

* * *

# testedOn: Epidermal growth factor receptor (Homo sapiens, UniProt P00533)
# Sequence (P00533 whole entry): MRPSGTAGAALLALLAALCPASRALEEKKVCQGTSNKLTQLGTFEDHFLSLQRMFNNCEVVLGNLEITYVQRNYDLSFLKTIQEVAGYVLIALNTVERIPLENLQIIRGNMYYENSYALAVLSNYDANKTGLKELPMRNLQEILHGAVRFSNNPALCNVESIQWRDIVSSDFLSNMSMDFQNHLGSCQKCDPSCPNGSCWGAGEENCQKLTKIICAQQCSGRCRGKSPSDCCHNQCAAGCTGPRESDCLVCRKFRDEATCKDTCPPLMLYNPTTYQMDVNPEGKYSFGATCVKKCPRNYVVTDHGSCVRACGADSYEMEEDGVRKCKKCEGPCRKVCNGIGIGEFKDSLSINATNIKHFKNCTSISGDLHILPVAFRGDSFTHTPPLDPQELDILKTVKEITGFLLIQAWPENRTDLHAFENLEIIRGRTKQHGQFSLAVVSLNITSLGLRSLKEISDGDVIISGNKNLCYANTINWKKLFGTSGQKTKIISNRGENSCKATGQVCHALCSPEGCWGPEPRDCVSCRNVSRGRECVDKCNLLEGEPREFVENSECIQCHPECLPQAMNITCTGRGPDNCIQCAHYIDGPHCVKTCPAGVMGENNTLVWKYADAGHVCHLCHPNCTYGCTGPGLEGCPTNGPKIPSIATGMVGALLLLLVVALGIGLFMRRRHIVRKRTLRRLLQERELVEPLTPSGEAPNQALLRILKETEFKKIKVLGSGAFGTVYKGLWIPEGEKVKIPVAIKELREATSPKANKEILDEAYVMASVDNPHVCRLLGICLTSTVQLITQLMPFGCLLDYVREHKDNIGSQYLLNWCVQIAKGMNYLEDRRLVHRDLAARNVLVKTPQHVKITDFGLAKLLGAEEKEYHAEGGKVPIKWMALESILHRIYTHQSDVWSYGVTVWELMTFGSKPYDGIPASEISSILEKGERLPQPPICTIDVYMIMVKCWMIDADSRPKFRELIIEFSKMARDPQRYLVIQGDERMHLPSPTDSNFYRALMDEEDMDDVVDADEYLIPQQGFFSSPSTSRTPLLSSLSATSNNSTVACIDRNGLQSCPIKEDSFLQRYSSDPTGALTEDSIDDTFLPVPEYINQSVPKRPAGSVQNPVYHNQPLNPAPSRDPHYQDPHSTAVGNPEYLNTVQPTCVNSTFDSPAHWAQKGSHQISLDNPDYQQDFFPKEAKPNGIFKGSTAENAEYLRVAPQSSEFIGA
# methodNotes: Inhibit of phosphorylation of a tyrosine/glutamic acid copolymer by epidermal growth factor receptor prepared from human A431 carcinoma cell vesicles by immunoaffinity chromatography.
measuredParameter: pIC50
Please treat pIC50 as minus the base-10 logarithm of the molar concentration.

stdin: Retrieve pIC50 measured for CN(CCO)CCNc1cc2c(Nc3cccc(Br)c3)ncnc2cn1 and print it.
stdout: 8.77

stdin: Retrieve pIC50 measured for Brc1cccc(Nc2ncnc3cnc(NCCCn4ccnc4)cc23)c1 and print it.
stdout: 8.77

stdin: Retrieve pIC50 measured for OCC(O)CNc1cc2c(Nc3cccc(Br)c3)ncnc2cn1 (stereo not given) and print it.
stdout: 9.74

stdin: Retrieve pIC50 measured for Brc1cccc(Nc2ncnc3cnc(NCCc4ccccn4)cc23)c1 and print it.
stdout: 8.92

stdin: Retrieve pIC50 measured for Cc1nc(Nc2cccc(Br)c2)c2cc(NCCN3CCOCC3)ncc2n1 and print it.
stdout: 6.93

stdin: Retrieve pIC50 measured for Brc1cccc(Nc2ncnc3cnc(NCCc4c[nH]cn4)cc23)c1 and print it.
stdout: 9.11

stdin: Retrieve pIC50 measured for OCCN(CCO)CCCNc1cc2c(Nc3cccc(Br)c3)ncnc2cn1 and print it.
stdout: 9.46

stdin: Retrieve pIC50 measured for OCCNc1cc2c(Nc3cccc(Br)c3)ncnc2cn1 and print it.
stdout: 9.72

stdin: Retrieve pIC50 measured for Cc1cccc(Nc2ncnc3cnc(N(C)C)cc23)c1 and print it.
stdout: 8.55

stdin: Retrieve pIC50 measured for O=C(O)CNc1cc2c(Nc3cccc(Br)c3)ncnc2cn1 and print it.
stdout: 9.55

stdin: Retrieve pIC50 measured for Cc1cccc(Nc2ncnc3cnc(NCCCN4CCOCC4)cc23)c1 and print it.
stdout: 8.74

stdin: Retrieve pIC50 measured for CN(CC(=O)O)c1cc2c(Nc3cccc(Br)c3)ncnc2cn1 and print it.
stdout: 9.36

stdin: Retrieve pIC50 measured for CN(C)CCCCNc1cc2c(Nc3cccc(Br)c3)ncnc2cn1 and print it.
stdout: 8.74

stdin: Retrieve pIC50 measured for Brc1cccc(Nc2ncnc3cnc(NCCN4CCOCC4)cc23)c1 and print it.
stdout: 9.19

stdin: Retrieve pIC50 measured for OCCN(CCO)CCNc1cc2c(Nc3cccc(Br)c3)ncnc2cn1 and print it.
stdout: 9.03

stdin: Retrieve pIC50 measured for Cc1cccc(Nc2ncnc3cnc(NCCc4c[nH]cn4)cc23)c1 and print it.
stdout: 8.89

stdin: Retrieve pIC50 measured for CNc1cc2c(Nc3cccc(C(F)(F)F)c3)ncnc2cn1 and print it.
stdout: 8.96

stdin: Retrieve pIC50 measured for CN(CC(O)CO)c1cc2c(Nc3cccc(Br)c3)ncnc2cn1 (stereo not given) and print it.
stdout: 9.25

stdin: Retrieve pIC50 measured for CNc1cc2c(Nc3cccc(Cl)c3)ncnc2cn1 and print it.
stdout: 9.72

stdin: Retrieve pIC50 measured for Brc1cccc(Nc2ncnc3cnc(NCc4cccnc4)cc23)c1 and print it.
stdout: 8.82

* * *

What pIC50 was measured for each of the following?
# testedOn: Epidermal growth factor receptor (Homo sapiens)
# methodNotes: Inhibition of autophosphorylation of epidermal growth factor receptor in A431 cells in culture
Please treat pIC50 as minus the base-10 logarithm of the molar concentration.

stdin: Retrieve pIC50 measured for CN1CCN(c2cc3c(Nc4cccc(Br)c4)ncnc3cn2)CC1 and print it.
stdout: 6.99

stdin: Retrieve pIC50 measured for CCN(CC)CC(O)CNc1cc2c(Nc3cccc(Br)c3)ncnc2cn1 (centres undefined) and print it.
stdout: 7.55

stdin: Retrieve pIC50 measured for O=C(O)CCNc1cc2c(Nc3cccc(Br)c3)ncnc2cn1 and print it.
stdout: 6.35

stdin: Retrieve pIC50 measured for Brc1cccc(Nc2ncnc3cnc(NCCN4CCOCC4)cc23)c1 and print it.
stdout: 8.10
